Test system: CAKI-1 renal
Assay: NCI tumour cell line growth inhibition, 48 h; in the data active = GI50 below about 0.43 µM; inactive = the rest
Outcome codes: yes (1) for active, no (0) for inactive

CPD_SMILES	CAT
N#CCCNc1nonc1-c1nc2ccccc2n1CC(=O)c1ccc(NC(=O)[C@@H](N)CCCCN)cc1	yes (1)
FC(F)(F)c1cccc(-c2nn3ncccc3c2-c2ccnc(Nc3ccc4c(c3)OCCO4)n2)c1	no (0)
C/C(=N\O)c1cccc(Nc2cc(-n3ccnc3)c3ccccc3n2)c1	no (0)
CN1CCc2nc3sc(C(N)=O)c(N)c3c(-c3cccs3)c2C1	no (0)
CCOC(=O)c1cc2c(cc1Cl)SC(=Nc1ccccc1)N(S(=O)(=O)c1ccc(Br)s1)S2(=O)=O	no (0)
CC(C)C[C@H](NC(=O)CCn1ccc2ccccc2c1=O)B(O)O	no (0)

====

Tested on: KM12 colon
Experiment: NCI tumour cell line growth inhibition, 48 h

MOLECULE	TGI
CC(C)(C)OC(=O)NCCCCC(N)NC(=O)c1ccccc1 (stereo unspecified)	> 100 µM
CCOC(=O)/C(I)=C/c1cc(OC)c(OC)c(OC)c1	19.2 µM
CN(C)CCNC(=O)c1cccc2c(NC(CCC(N)=O)C(=O)O)c3ccccc3nc12 (stereo unspecified)	59.1 µM
CCC(=O)Nc1ccc(N2C(=O)/C(=C/c3ccc(OC)cc3)N=C2c2ccccc2)cc1	> 50 µM
O=c1[nH]nc(-c2ccccc2)n1O	> 100 µM
COc1cc2c(cc1F)C(c1ccccc1Cl)=Nc1c(n[nH]c1C)N2	15.5 µM
CCN(CC)C1Oc2cc3c(cc2C(c2cccc(OC)c2OC)C1C)OCO3 (stereo unspecified)	29.5 µM
COc1cccc(Oc2ccccc2NC(=O)CNC(=O)c2cccc3ccccc23)c1	19.6 µM
CN1CCN(c2ccc3c(c2)NCC(=O)N3)CC1	> 100 µM
ClC1=C(Cl)C(Cl)(Cl)c2c3c(c4c(c21)C(Cl)(Cl)C(Cl)=C4Cl)C(Cl)(Cl)C(Cl)=C3Cl	> 100 µM
COC(=O)C(C(=O)C(=O)Nc1ccc([N+](=O)[O-])cc1)c1nc2ccc([N+](=O)[O-])cc2[nH]c1=O (stereo unspecified)	> 100 µM
O=C(CN1N=C(c2ccc(F)cc2)CCC1=O)Nc1nc2ccccc2s1	> 100 µM
COc1cc(CNc2nc3ccccc3nc2C(=O)O)cc(OC)c1OC	> 100 µM
O=C1OC(=O)c2c1c(-c1ccccc1)nc1ccccc21	> 100 µM
O=C1c2c(Br)sc(Br)c2[C@@H](NC(=O)C(F)(F)F)C1Br (stereo partly specified)	17.7 µM
Oc1cccc2c1NCCC2	> 100 µM

====

# GI50 per entry for NCI-H460 lung

COMPOUND	GI50
c1cc(N2CCN(c3ccc(C4=NCCCN4)cc3)CC2)ccc1C1=NCCCN1	> 58.6 µM
COc1ccc2c(c1)C(=O)c1c-2c(OCCN(C)C)nc2ccccc12	1.15 µM
C/C(=N\O)c1cccc(Nc2cc(-n3ccnc3)c3ccccc3n2)c1	> 100 µM
Cc1cc(C)c(C2CNCc3cc4c(cc32)CNCC4c2c(C)cc(C)cc2C)c(C)c1 (centres undefined)	2.53 µg/mL

====

Test system: SK-OV-3 ovarian
Test: NCI tumour cell line growth inhibition, 48 h

MOLECULE	TGI
CCOC(=O)Cn1nnc2ccc(Nc3nc4ccccc4nc3-c3ccccc3)cc21	> 100 µM
CC(C)/C(Cl)=N/OC(=O)Nc1ccc(Cl)c(Cl)c1	30.7 µM
O=C(O)c1ccccc1N=Nc1c(O)c(S(=O)(=O)O)cc2cc(S(=O)(=O)O)ccc12	> 100 µM
NC(N)=NCCC(O)(P(=O)(O)O)P(=O)(O)O	> 100 µM
N#C/C(C(=S)NCc1ccccc1)=C(/N)N1CCCC1	> 100 µM
O=C(NCCNCCO)c1cccc2ccc(-c3ccccc3)nc12	27.7 µM
Cc1[nH]c(-c2cc(N)ccc2Cl)c2c1C(=O)CCCC2	36.6 µM
NC1=NC(=O)C(CC(=O)Nc2ccc(Cl)cc2Cl)S1 (configuration not stated)	> 100 µM
O=c1[nH]c2nc3ccccc3c(=O)n2/c1=C/c1ccco1	> 100 µM
Cc1ccncc1C(N)=O	> 100 µM
COc1cc2ncc3c(nc4sccn43)c2cc1OC	> 100 µM
COc1ccc(-c2[nH]c3ccccc3c2CCNS(=O)(=O)c2ccc(C)cc2)cc1	> 10 µM
N[C@H](COCc1ccccc1)c1ccccc1	> 100 µM
NC(Cc1ccc(S(=O)(=O)O)cc1)C(=O)NC(Cc1ccc(S(=O)(=O)O)cc1)C(=O)NC(Cc1ccc(S(=O)(=O)O)cc1)C(=O)NC(Cc1ccc(S(=O)(=O)O)cc1)C(=O)O (configuration not stated)	> 100 µM
Fc1cccc(F)c1C(Nc1nncs1)Nc1nncs1	> 100 µM
Nc1ncnc2c1ncn2[C@@H]1O[C@H](COC(c2ccccc2)(c2ccccc2)c2ccccc2)[C@@H](OC(=S)Oc2ccccc2)[C@@H]1F	30.8 µM
N#CC1(C#N)C(c2ccccc2)C=CC12OCCCO2 (configuration not stated)	> 100 µM

====

System: MDA-MB-231 breast
Experiment: NCI tumour cell line growth inhibition, 48 h
Listing of recorded TGI by entry.

CPD_SMILES	TARGET_UNDER_TEST	TGI
COc1cc2c(cc1F)C(c1ccccc1Cl)=Nc1c(n[nH]c1C)N2	MDA-MB-231 breast	16.9 µM
CC(=O)O[C@@H]1C[C@@]2(C)[C@@H]3CC=C4[C@@H](C[C@H](O)C(=O)C4(C)C)[C@]3(C)C(=O)C[C@]2(C)[C@H]1[C@@](C)(O)C(=O)/C=C/C(C)(C)OC(C)=O	MDA-MB-231 breast	> 21.8 µM
N#Cc1nc(C#N)n(S(=O)(=O)c2ccccc2)c1NS(=O)(=O)c1ccccc1	MDA-MB-231 breast	> 100 µM

====

Listing of recorded TGI by entry.
Test system: COLO 205 colon
Assay: NCI tumour cell line growth inhibition, 48 h
OBSERVED_PROPERTY: TGI

CPD_SMILES	TARGET_UNDER_TEST	OBSERVED_PROPERTY	RECORDED_RESULT
CCOC(=O)c1cc2c(cc1Cl)SC(=Nc1ccccc1)N(S(=O)(=O)c1ccc(Br)s1)S2(=O)=O	COLO 205 colon	TGI	> 100 µM
COc1ccc(-c2cc(=O)c3c(O)cccc3o2)c(OC)c1OC	COLO 205 colon	TGI	> 100 µM
Nc1ccc(Nc2cc(=O)[nH]c(=O)[nH]2)cc1Cl	COLO 205 colon	TGI	> 100 µM
CCCn1c(=O)c(N2CCN(c3ccccc3)CC2)nc2sc3ccccc3c21	COLO 205 colon	TGI	> 100 µM
COc1cc(CNc2nc3ccccc3nc2C(=O)O)cc(OC)c1OC	COLO 205 colon	TGI	> 100 µM
COc1ccc(NC(=O)C(=O)/C=C(\O)c2ccccc2)cc1	COLO 205 colon	TGI	> 10 µM

====

Listing of recorded log10 of TGI by entry.
System: MALME-3M melanoma
Test: NCI tumour cell line growth inhibition, 48 h
OBSERVED_PROPERTY: log10 of TGI (log10 of the value in µM)

COMPOUND	log10 of TGI
C/C(=N\O)c1cccc(Nc2cc(-n3ccnc3)c3ccccc3n2)c1	1.40
O=C(O)c1ccccc1NC(=S)c1ccccc1	1.82
O=C(NNS(=O)(=O)c1ccc(Cl)cc1Cl)c1cccnc1Nc1ccc(Cl)cc1	1.54
Oc1c(-c2cc(C(F)(F)F)[nH]n2)cc(Cl)c(OCc2ccc(Cl)cc2)c1-c1ccc(Cl)c(C(F)(F)F)c1	0.34
CN(C)CCc1c2c(nc3ccccc13)C(=O)c1cccnc1C2=O	0.25
C[CH2][Hg][S]c1ccccc1C(=O)O	0.35
O=c1c2cc(F)ccc2sc2c(NCCCNCCO)nc3ccccc3c12	0.49
Cc1[nH]c(-c2cc(N)ccc2Cl)c2c1C(=O)CCCC2	1.00
CCc1ccc2c(c1)N(CC(C)CN(C)C)c1ccccc1S2 (stereo not given)	0.92
Fc1ccc(/C=N/n2c(-c3ccc(F)c(Cl)c3)n[nH]c2=S)cc1	1.78
O=C1c2c(Br)sc(Br)c2[C@@H](NC(=O)C(F)(F)F)C1Br (stereo not given in full)	0.69
CC(C)C[C@H](NC(=O)CCn1ccc2ccccc2c1=O)B(O)O	1.00
COC(=O)c1cc(-c2ccc(OC)c(OC)c2)[nH]c1N/N=C/c1c(Cl)cccc1Cl	1.50
COc1ccc(Nc2ccnc(N3CCN(c4ccnc5cc(Cl)ccc45)CC3)n2)cc1	0.67

====

Test system: HOP-62 NSCLC
Experiment: NCI tumour cell line growth inhibition, 48 h
OBSERVED_PROPERTY: TGI

COMPOUND	OBSERVED_PROPERTY	RECORDED_RESULT
COC(=O)C1CCC(=O)N1C(c1ccc2c(c1)OCO2)c1cc(OC)c(OC)c(OC)c1 (stereo not given)	TGI	> 100 µM
COc1cc(C(=O)c2cc(C)c3[nH]c4ccc(O)cc4c3c2C)cc(OC)c1OC	TGI	> 70.9 µM
O=c1[nH]nc(-c2ccccc2)n1O	TGI	> 100 µM
NC(Cc1ccc(S(=O)(=O)O)cc1)C(=O)NC(Cc1ccc(S(=O)(=O)O)cc1)C(=O)NC(Cc1ccc(S(=O)(=O)O)cc1)C(=O)NC(Cc1ccc(S(=O)(=O)O)cc1)C(=O)O (stereo not given)	TGI	> 100 µM
C1CSCCSCCCSCCSCCCSCCSCCCSCCSC1	TGI	> 100 µM
C[N+](C)(C)c1ncnc2c1ncn2C1CCCO1 (stereo not given)	TGI	> 100 µM
N#CNc1nc(N)c(-c2ccc(Cl)cc2)c(C(=O)Nc2nccs2)n1	TGI	> 100 µM
COC(=O)C(C(=O)C(=O)Nc1ccc([N+](=O)[O-])cc1)c1nc2ccc([N+](=O)[O-])cc2[nH]c1=O (stereo not given)	TGI	> 100 µM
Cc1cc(=O)c2c(O)cc3c(c2o1)CC=C(COC1OC(COC2OC(CO)C(O)C(O)C2O)C(O)C(O)C1O)CO3 (stereo not given)	TGI	> 100 µM
COC(=O)C(Cc1c[nH]c2ccccc12)N=C1Nc2ccncc2S(=O)(=O)N1c1cccc(OC(C)C)c1 (stereo not given)	TGI	> 100 µM

All values here come from PubChem BioAssay (NCI).
